# Tested on: UACC-62 melanoma
# Method Description: NCI-60 one-dose screen, 48 h (100 = growth as untreated, 0 = no growth, -100 = all killed)
# Conditions: 10 µM unless noted
This is part of a sample that, as a whole, favours compounds with a hit. Of some 83,000 tested, about 20% had one in any assay.
Measured Attribute: growth (%)
Expressed in %, but write only the number.

Compound	growth / %
COc1cc(/C=C/c2cc(O)c(C(C)=O)c(O)c2)cc2c1O[C@]1(C)CC[C@@H](O)C(C)(C)[C@H]1C2	38.7
OC(c1ccc(F)c(C(F)(F)F)c1)c1cnccc1NC1CCCCC1 (stereo not drawn)	71.2
CCCCCCNC(=O)Oc1ccc(/C(=C(\C)c2ccccc2)c2ccc(OCCCN(C)C)cc2)cc1	56.1
C/C=C(\C)C(=O)NC1=CC[C@@]2(C)C(=CCC3C2CC[C@@]2(C)C3CC[C@@H]2C(C)N(C)C)C1=O (stereo partly drawn)	-16.1
COc1cc2c3c(c4c5ccccc5[nH]c4c2c(OC)c1OC)C(=O)N(CCN1CCOCC1)C3=O	43.3
N/C(=N\C(N)=N\c1nc2ccccc2s1)c1cccc(Cl)c1	86.2

The compound listed as Cc1ncc(C(=O)Nc2ccc(CN3CCN(C)CC3)c(C(F)(F)F)c2)cc1C#Cc1cnc(N)cc1C#N shows growth equal to -83.7

The compound listed as Oc1ccc(C(c2ccc(O)cc2)c2ccc(Br)cn2)cc1 shows growth equal to 38.9

The compound listed as Nc1c(C(=O)Nc2cccc3cnccc23)sc2nc3c(cc12)CN(Cc1ccccc1)CC3 shows growth equal to 96.4

The compound listed as COc1ccc(-c2nc(S(=O)(=O)c3ccccc3)c(S(=O)CC(=O)N3CCC(C)CC3)o2)cc1 (stereo not drawn) shows growth equal to 17.9

The compound listed as Cc1ccc(-c2csc(NC(=O)CSc3nc(-c4ccccc4)cc(=O)[nH]3)n2)cc1 shows growth equal to 70

The compound listed as CC(=O)[C@@H]1CC[C@]2(CO)CC[C@]3(C)[C@H](CC[C@@H]4[C@@]5(C)CCCNC(C)(C)[C@@H]5CC[C@]43C)[C@@H]12 shows growth equal to 94.7
